- measurementProtocol: NCI Yeast Anticancer Drug Screen. Data for the rad50 strain (AID 155);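 also: 0% = growth of vehicle-only cultures of the same strain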
- reportedConditions: S. cerevisiae rad50 strain growth inhibition; at 50.0 µM; stronger effect = higher value
About 79,000 compounds went through this panel and 15% of them were active in at least one assay; those are over-represented in the sample as a whole. Where a SMILES comes first, the peptide text is derived from it. The star is where a group is joined. Trt = c1ccc(C(c2ccccc2)(c2ccccc2)*)cc1; Cbz = O=C(OCc1ccccc1)*; Boc = CC(C)(C)OC(=O)*; OBn = c1ccc(CO*)cc1; Bn = c1ccc(C*)cc1
measuredProperty: growth inhibition (%)
Express your answer in %, writing the number without its unit.

Given the entry `COc1c(NC(=O)c2cccc(C(=O)Nc3cccc([N+](=O)[O-])c3OC)c2)cccc1[N+](=O)[O-]` , report its measured growth inhibition. -30.6

Given the entry `[N-]=[N+]=NC[C@H]1OCO[C@H](CN=[N+]=[N-])[C@@H](OCCOCCCl)[C@@H]1OCCOCCCl` , report its measured growth inhibition. -13.1

Given the entry CC(C)CC(NC(=O)C(CCC(=O)OCc1ccccc1)NC(=O)OC(C)(C)C)C(=O)NC(COCc1ccccc1)C(=O)NC(Cc1ccccc1)C(=O)O (configuration not stated) (Boc-E(OBn)LS(Bn)F-OH; configuration not given here) , report its measured growth inhibition. -6.65

Given the entry `O=C(c1ccc(O)c(C(=O)O)c1)c1ccc(O)c(C(=O)O)c1` , report its measured growth inhibition. 10.9

Given the entry CCSC(SCC)C(O)C(O)C(O)C(C)O (configuration not stated) , report its measured growth inhibition. 31.8

Given the entry `CN(C)C(=S)/N=C1\SCS(=O)(=O)N1C` , report its measured growth inhibition. 14.2

Given the entry Cc1ccccc1OCC1COCN(C(C)(C)CO)CO1 (configuration not stated) , report its measured growth inhibition. -11.1

Given the entry `C[n+]1cn(C2=C([O-])c3ccccc3C(=O)/C2=N\S(=O)(=O)c2ccccc2)c2ccccc21` , report its measured growth inhibition. 0.95

Given the entry `CC(C)(C)N(O)c1ccc(P(=O)(c2ccccc2)c2ccccc2)cc1` , report its measured growth inhibition. 23.4

Given the entry `Nc1cccc(N=[N+]([O-])c2cccc(N)c2)c1` , report its measured growth inhibition. 18.9

Given the entry COc1ccc2c(c1OC)C1(CCN(C)C)CC(O)CCC1C=C2 (configuration not stated) , report its measured growth inhibition. 20.4

Given the entry COC(=O)C(Cc1ccccc1)NC(=O)C1CSC(C)(C)N1C=O (configuration not stated) , report its measured growth inhibition. 3.25

Given the entry `Cc1cc([N+](=O)[O-])ccc1N=Nc1ccc([N+](=O)[O-])cc1C` , report its measured growth inhibition. -0.6

Given the entry `CCOc1snc(C(Cl)(Cl)Cl)c1Cl` , report its measured growth inhibition. 9.7

Given the entry `CCOC(=O)COc1c(C)cccc1Cl` , report its measured growth inhibition. 4.2

Given the entry CC1(O)c2ccccc2-c2nc3ccccc3nc21 (configuration not stated) , report its measured growth inhibition. 15.1

Given the entry `Nc1ncnc2c1[nH]c(=O)n2-c1ccccc1` , report its measured growth inhibition. -46.6

Given the entry `C[n+]1cccc2cc(Br)ccc21` , report its measured growth inhibition. -5.3

Given the entry C[C@@H]1CCC[C@H]1C(N)C(=O)O (some centres not stated) , report its measured growth inhibition. -18

Given the entry CCOC(=O)C1=C(c2ccccc2)OC(N)=C(C#N)C1c1ccccc1 (configuration not stated) , report its measured growth inhibition. -16.9

Given the entry `CC(C)C(=O)OCc1ccc(Cl)cc1` , report its measured growth inhibition. 29.8

Given the entry `C/C(Cc1ccccc1)=N\NC(N)=S` , report its measured growth inhibition. 13.3

Given the entry `O=C(OCCSC(=S)N1CCCCC1)c1ccccc1` , report its measured growth inhibition. -13.5

Given the entry `Nc1ccc(S(=O)(=O)c2ccc(Nc3ccnc4cc(Cl)ccc34)cc2)cc1` , report its measured growth inhibition. 23.1

Given the entry CCNCC(OC)C(COC)OC(=O)c1ccc([N+](=O)[O-])cc1 (configuration not stated) , report its measured growth inhibition. 15.1

Given the entry `CN(C)C(=O)c1cccc([N+](=O)[O-])c1` , report its measured growth inhibition. 1

Given the entry COC(=O)C(CO)NC(=O)C(CSC(c1ccccc1)(c1ccccc1)c1ccccc1)NC(=O)OCc1ccccc1 (configuration not stated) (Cbz-Cys(Trt)-Ser-OMe; configuration not given here) , report its measured growth inhibition. 76.2

Given the entry `Nc1nnnn1C(=O)NCCCl` , report its measured growth inhibition. -6.55

Given the entry NC(=O)N/N=C(\CC1OC(=O)c2ccccc21)c1ccc([N+](=O)[O-])cc1 (configuration not stated) , report its measured growth inhibition. 5.4

Given the entry Cc1cn(C2CC(O)C(O)C(C)O2)c(=O)[nH]c1=O (configuration not stated) , report its measured growth inhibition. 22.2

Given the entry c1ccc2c(c1)C1CC3N=NC1C23 (configuration not stated) , report its measured growth inhibition. 3.3

Given the entry `CCOC(=O)N/N=C(\CC)NO` , report its measured growth inhibition. 2.45

Given the entry `O=C(O)c1cc2cc(Br)ccc2c(Br)c1O` , report its measured growth inhibition. -3.75

Given the entry CCC12C[N+]3([O-])CCc4c([nH]c5ccccc45)C(C(=O)OC)(c4cc5c(cc4OC)N(C)C4C(O)(C(=O)OC)C(OC(C)=O)C6(CC)C=CCN7CCC54C76)CC(C3)C1O2 (configuration not stated) , report its measured growth inhibition. -8.15

Given the entry CC(Cl)(CCl)C(=O)NCNC(=O)C(C)(Cl)CCl (configuration not stated) , report its measured growth inhibition. 51.5

Given the entry CC(=O)OC1CC1(Br)Br (configuration not stated) , report its measured growth inhibition. 6.3

Given the entry `CN1Cc2cc3c(cc2-c2ccccc21)OCO3` , report its measured growth inhibition. -23.7

Given the entry `Cc1nc(-c2nc(C(=O)NCCC[S+](C)C)cs2)cs1` , report its measured growth inhibition. -11.5

Given the entry O=C(Nc1cccc([N+](=O)[O-])c1)C(=O)C(C(=O)c1ccccc1-c1ccccc1)C1OC(=O)c2ccccc21 (configuration not stated) , report its measured growth inhibition. 27.9

Given the entry `CCCCCCC(=O)/C=C/c1cc(Cl)cc(Cl)c1OCOC` , report its measured growth inhibition. 35

Given the entry `O=C(COCC(=O)N/N=C/c1ccc(Cl)cc1Cl)N/N=C\c1cc(Cl)cc(Cl)c1` , report its measured growth inhibition. -21.1

Given the entry `CCCCCCCCCCCCCC(N)=O` , report its measured growth inhibition. -30.8

Given the entry CC1CC=CCC1C1OCCO1 (configuration not stated) , report its measured growth inhibition. 3.95

Given the entry `N#CC(C#N)=Cn1c(=S)[nH]c2ccc([N+](=O)[O-])cc21` , report its measured growth inhibition. -13.4

Given the entry CCC(Br)C(=O)Nc1ccccc1C (configuration not stated) , report its measured growth inhibition. 27

Given the entry `CSCC[C@H](NC(C)=O)B1OCCO1` , report its measured growth inhibition. 9.85

Given the entry `c1ccc(-c2ccccc2-c2ccccc2)cc1` , report its measured growth inhibition. 18.1

FYI, the data here is from PubChem BioAssay (NCI).
